# testedSystem: ATP-dependent translocase ABCB1 (Homo sapiens)
# Sequence (P08183 whole entry): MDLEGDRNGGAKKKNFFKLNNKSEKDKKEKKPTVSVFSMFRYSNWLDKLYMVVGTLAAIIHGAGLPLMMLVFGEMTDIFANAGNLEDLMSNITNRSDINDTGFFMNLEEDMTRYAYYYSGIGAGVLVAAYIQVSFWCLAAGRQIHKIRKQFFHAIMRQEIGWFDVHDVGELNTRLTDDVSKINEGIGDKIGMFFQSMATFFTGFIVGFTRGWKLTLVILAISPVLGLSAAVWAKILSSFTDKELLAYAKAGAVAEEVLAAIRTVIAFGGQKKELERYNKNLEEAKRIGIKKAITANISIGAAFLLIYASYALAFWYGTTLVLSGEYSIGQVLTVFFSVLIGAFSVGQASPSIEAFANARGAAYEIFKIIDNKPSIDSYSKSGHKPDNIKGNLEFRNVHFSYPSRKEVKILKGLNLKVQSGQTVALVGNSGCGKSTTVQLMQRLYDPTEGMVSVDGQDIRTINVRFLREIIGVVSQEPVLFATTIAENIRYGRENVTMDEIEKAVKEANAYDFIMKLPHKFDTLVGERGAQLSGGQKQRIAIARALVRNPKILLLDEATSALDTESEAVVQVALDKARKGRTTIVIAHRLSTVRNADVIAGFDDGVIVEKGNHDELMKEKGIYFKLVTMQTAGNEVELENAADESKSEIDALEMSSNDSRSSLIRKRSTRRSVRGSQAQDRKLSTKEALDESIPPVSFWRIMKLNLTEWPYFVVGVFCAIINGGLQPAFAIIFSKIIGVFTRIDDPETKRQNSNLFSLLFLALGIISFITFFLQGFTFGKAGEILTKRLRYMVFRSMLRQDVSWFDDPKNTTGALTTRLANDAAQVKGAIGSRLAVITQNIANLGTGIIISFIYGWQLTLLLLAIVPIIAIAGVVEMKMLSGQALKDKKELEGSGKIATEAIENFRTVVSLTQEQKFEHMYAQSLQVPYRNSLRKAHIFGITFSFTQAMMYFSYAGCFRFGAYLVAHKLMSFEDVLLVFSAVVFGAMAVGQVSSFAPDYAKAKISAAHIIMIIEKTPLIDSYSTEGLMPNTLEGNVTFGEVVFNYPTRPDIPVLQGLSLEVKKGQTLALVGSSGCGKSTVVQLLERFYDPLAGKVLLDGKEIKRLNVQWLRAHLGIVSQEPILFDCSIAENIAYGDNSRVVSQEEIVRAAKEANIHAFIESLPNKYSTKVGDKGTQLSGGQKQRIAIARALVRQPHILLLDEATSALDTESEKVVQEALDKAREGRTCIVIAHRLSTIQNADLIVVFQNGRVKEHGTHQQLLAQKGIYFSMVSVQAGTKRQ
# experimentDescription: Compound was tested for inhibition of daunomycin efflux in the resistant human T-lymphoblast cell line CEM vcr1000.
assayMetric: EC50 (µM)

Below: 9 molecules and their reported EC50.
molecule: Cc1c(C(=O)c2cccs2)c(=O)n(-c2ccccc2)n1CC(O)CNC(C)(C)C (stereo unspecified)
EC50 [µM]: 72.4
--
molecule: Cc1c(C(=O)c2ccccc2)c(=O)n(-c2ccccc2)n1CC(O)CNC(C)(C)C (stereo unspecified)
EC50 [µM]: 81.3
--
molecule: Cc1ccccc1N1CCN(CC(O)Cn2c(C)c(C(=O)CCc3ccccc3)c(=O)n2-c2ccccc2)CC1 (stereo unspecified)
EC50 [µM]: 0.21
--
molecule: Cc1c(C(=O)c2ccccc2)c(=O)n(C)n1CC(O)CN(C(C)C)C(C)C (stereo unspecified)
EC50 [µM]: 24.1
--
molecule: CCCNc1c(C(=O)c2ccccc2)c(C)nn1-c1ccccc1
EC50 [µM]: 11
--
molecule: CCCNCC(O)Cn1c(C)c(C(=O)c2ccccc2)c(=O)n1-c1ccccc1 (stereo unspecified)
EC50 [µM]: 28.2
--
molecule: CCC/N=C(\CCc1ccccc1)c1c(C)[nH]n(-c2ccccc2)c1=O
EC50 [µM]: 3.79
--
molecule: CC1=NN(c2ccccc2)C(=O)/C1=C(/c1ccccc1)N1CCN(c2ccccc2C)CC1
EC50 [µM]: 0.68
--
molecule: Cc1c(C(=O)CCc2ccccc2)c(=O)n(-c2ccccc2)n1CC(O)CNC(C)C (stereo unspecified)
EC50 [µM]: 11.8

1 = CCCNCC(O)Cn1c(C)c(C(=O)c2cccs2)c(=O)n1-c1ccccc1 (stereo unspecified)
2 = Cc1c(C(=O)c2cccs2)c(=O)n(-c2ccccc2)n1CC(O)CNC(C)C (stereo unspecified)
Exercise: Rank 1 against 2 by their EC50 values and give the higher one. Write the label of whichever entry you select.
Solution: 2

====

# testedSystem: UniProt:P08183
# experimentDescription: Compound was tested for inhibition of daunomycin efflux in the resistant human T-lymphoblast cell line CEM vcr1000.
pEC50: −log10 of the molar value.
assayMetric: pEC50

Below: 4 compounds and their reported pEC50.
compound: Cc1nn(-c2ccccc2)c(OCC(O)CN(C(C)C)C(C)C)c1C(=O)c1ccccc1 (stereo not given)
pEC50: 5.97
//
compound: Cc1c(C(=O)CCc2ccccc2)c(=O)n(-c2ccccc2)n1CC(O)CNC(C)(C)C (stereo not given)
pEC50: 5.11
//
compound: Cc1nn(C)c(OCC(O)CN(C(C)C)C(C)C)c1C(=O)c1ccccc1 (stereo not given)
pEC50: 5.92
//
compound: Cc1c(C(=O)c2ccccc2)c(=O)n(-c2ccccc2)n1CC(O)CN(C(C)C)C(C)C (stereo not given)
pEC50: 4.90

P = CCC/N=C(\c1ccccc1)c1c(C)[nH]n(C)c1=O
Q = CCCNCC(O)Cn1c(C)c(C(=O)CCc2ccccc2)c(=O)n1-c1ccccc1 (stereo not given)
R = CCCCNCC(O)Cn1c(C)c(C(=O)CCc2ccccc2)c(=O)n1-c1ccccc1 (stereo not given)
S = Cc1ccccc1N1CCN(CC(O)Cn2c(C)c(C(=O)c3ccccc3)c(=O)n2-c2ccccc2)CC1 (stereo not given)
Exercise: Sort ascending by pEC50. Form entry: labels listed in requested order.
Solution: P, Q, R, S

A = CCCNc1c(C(=O)CCc2ccccc2)c(C)nn1-c1ccccc1
B = Cc1c(C(=O)c2ccccc2)c(=O)n(-c2ccccc2)n1CC(O)CNC(C)C (stereo not given)
Exercise: // which entry reports the smaller pEC50, A or B ? Write the label of whichever entry you select.
Solution: B
